// data source = the supplement of paper PMC9170038

test system: MS2 coat protein; test: apparent KD of MS2 coat protein; higher = weaker reporter binding; conditions: Eterna round: R107; input ligand: tryptophan 2.4 mM
Values of apparent KD of MS2 coat protein greater than or equal to 30 nM map to T; values below map to F.

I'd appreciate it if you could say whether CCGGCGCGAUUAUGGGUUUGCUUUUACGAUACCAGCCGCGUUCCGGGCCCUUGGCAGCGUGUAACAUGAGGAUCACCCAUGUUCA [theeternabot_exclusion_MS2_Theo_A_37] has apparent KD of MS2 coat protein at least equal to 30 nM.
F

I'd appreciate it if you could say whether GAUGAACUAUUUGAUACCAGACCACAUGAGGAUCACCCAUGUGAGUUUCGUCCUUAGCCGGUCCCUUGGCAGCAAAUAGUUUAUC [#27 Exclusion-TheophyllineB] has apparent KD of MS2 coat protein at least equal to 30 nM.
F

I'd appreciate it if you could say whether UGUAACAUGAGGAUCACCCAUGUGAGUGAUACCAGACUAGUGUUAGUCCCUUGGCAGCACGCUGGACGAAUGUGUAGUCUAUGCG [Same State - Theophylline A (Freestyle 19)] has apparent KD of MS2 coat protein at least equal to 30 nM.
T

I'd appreciate it if you could say whether UACCGGUGACUCGAUACCAGUCCUCUAAAAUACAUGAGGAUCACCCAUGUAACCUUCCCAGACCCUUGGCAGCGACACAUGGAUA [theeternabot_sameState_MS2_Theo_B_49] has apparent KD of MS2 coat protein at least equal to 30 nM.
T

I'd appreciate it if you could say whether GGCACCAGGAGAAGGAGCGUGAAGACAUGAGGAUCACCCAUGUAGAGGCCCGUACCGGGUUCGCAGGUAGGUCGCUCCUGGUGCC [#1 Same State - Arginine B Attempt #14 (HarryS)] has apparent KD of MS2 coat protein at least equal to 30 nM.
F

I'd appreciate it if you could say whether GGAUAGGACAGAAGGAGCGACAUGCGACGAAAGUCGAAAAGAUCACAUGAGGAUCACCCAUGUCAGGUAGGUCGCUGUCCUAUCG [ArgXB 10 #Zipper #MS2Left #StaticStem #Blueprint] has apparent KD of MS2 coat protein at least equal to 30 nM.
T

I'd appreciate it if you could say whether ACACAUGAGGAUCACCCAUGUUCAAUAGAUACCAGUGAUACGGUGCACCCUUGGCAGCUGUUGCUGAGUGAUGGUUCCCUCGGUA [#23 SameState-TheophyllineA] has apparent KD of MS2 coat protein at least equal to 30 nM.
T

I'd appreciate it if you could say whether "GGCCGAAACGGCCAAGGUAUCAUGACCGAUACCAGCGAAGAAGAACGCCCUUGGCAGCGGACAUGAGGAUCACCCAUGUAAAGAA" has apparent KD of MS2 coat protein at least equal to 30 nM.
F

I'd appreciate it if you could say whether AGGACCAGGAUCCUCAUGUAACUGGUCCAACGAGGACCGGUACGGCCGCCACUCGAAUAAACAUGAGGAUCACCCAUGUAAUAAU [T''-M-T'-T-MS2] has apparent KD of MS2 coat protein at least equal to 30 nM.
T

I'd appreciate it if you could say whether GGAUAGGACAGAAGGAGCGACGUGAGGCGAAAGCCAAUCCUUCAACAUGAGGAUCACCCAUGUCAGGUAGGUCGCUGUCCUAUCG [ArgBX 5] has apparent KD of MS2 coat protein at least equal to 30 nM.
F

I'd appreciate it if you could say whether UUAAUUAUAUAUUAUUUAAUAUUUACAGAAGGAGCGUGAUAAAACACAGGUAGGUCGCUGAAGGGAACAUGAGGAUCACCCAUGU [AstrosSSArgA#20] has apparent KD of MS2 coat protein at least equal to 30 nM.
T

I'd appreciate it if you could say whether ACAUGAGGAUCACCCAUGUACGAGUCGGAAGGAGCGGCAAUUAAGCCAGGUAGGUCGCCGGCAGAGAGUGUCAUUGUAAGUAUGA [Same State - Arginine A / A] has apparent KD of MS2 coat protein at least equal to 30 nM.
F

I'd appreciate it if you could say whether CGGUUGCCACAUGAGGAUCACCCAUGUGAAGGAGCGGCGAAUAAGCCAGGUAGGUCGCGCAUGAAUAAAUCAUGUUGGUGCCGAA [XArg-A 17 V2] has apparent KD of MS2 coat protein at least equal to 30 nM.
T

I'd appreciate it if you could say whether AAUAUUUGCCACAUGAGGAUCACCCAUGUGCGAGGACCGGUACGGCCGCCACUCGGUCGGUGGUUAAUGAAGAUAAACAAUAAUG [XTryp A #11] has apparent KD of MS2 coat protein at least equal to 30 nM.
F

I'd appreciate it if you could say whether CGCACAGAGAAUGAUACCAGCGAGGAAGCGACAUGAGGAUCACCCAUGUGCGAAUGAUCCCGCCCUUGGCAGCGUAAGUGAUCCC [ss-theoB-?] has apparent KD of MS2 coat protein at least equal to 30 nM.
T

I'd appreciate it if you could say whether AGGACAUGAGGAUCACCCAUGUACUCUGAAGGAGCGUCGAGAACGACAGGUAGGUCGCAGGCUAAGGAAGGUGAUGCUCAAGAAG [Exclusion Arginine A GF7] has apparent KD of MS2 coat protein at least equal to 30 nM.
F

I'd appreciate it if you could say whether AGCAUGUUAUCAGAUACCAGACAUCUUUUUUUACGUAUUACAUGAGGAUCACCCAUGUUGGUCCCUUGGCAGCUGAAAUAUUUCA [JR_Nu_SSTheophyB_Sub022] has apparent KD of MS2 coat protein at least equal to 30 nM.
T

I'd appreciate it if you could say whether AGAUGUAGCGGAAGGAGCGACAAGAGGAUCACCCUUGUCUCCCGUUGUGGGAGUUCCUUAGGUCAGGUAGGUCGCCGUUACGUCA [Omei Arg B SS B v4] has apparent KD of MS2 coat protein at least equal to 30 nM.
F

I'd appreciate it if you could say whether CACAUGAGGAUCACCCAUGUCUGAACUGAAGGAGCGCUAAACAAGGCAGGUAGGUCGCGGAAUCUUGUGUGCAUAUGCACACGGG [9.S] has apparent KD of MS2 coat protein at least equal to 30 nM.
F

I'd appreciate it if you could say whether AGCUCGCAUCCUCUAGCGUCAAAGACGCCUCGAGGACCGGUACGGCCGCCACUCGAGAUGAGGAUCACCCAUCUCAAAGCGAGCA [TrypAX 14 #SwitchBubble #AlternativeMS2 #MS2Late #CuTurnoff] has apparent KD of MS2 coat protein at least equal to 30 nM.
T

I'd appreciate it if you could say whether UGAAAGUAGGGAAGGAGCGCUACAACAUGAGGAUCACCCAUGUAAUGAGGAUCACCCAUGUGGCAGGUAGGUCGCCCAAAACAUG [#14 Same State - Arginine B] has apparent KD of MS2 coat protein at least equal to 30 nM.
T
